Attribution: PubChem BioAssay AID2060502

System: 885724-159-R-J1-PDC complex spheroid viability
Assay: Anticancer human tumor 885724-159-R-J1-PDC patient-derived pancreatic adenocarcinoma cell line growth inhibition [GQUAD]
Conditions: second compound 0.316 µM; first compound 10 µM; stronger effect = lower value
Parameter: viability, T/C (%)
A number alone suffices; assume %.

Examples with answers:
[[record]]
compound = "CC1COCCN1c1cc(-c2ccnn2C)c2ccnc(-c3ccn[nH]3)c2n1 (stereo not drawn) + CN(C)c1ccc(Nc2c3ccc(NC(=O)CCN4CCCC4)cc3nc3cc(NC(=O)CCN4CCCC4)ccc23)cc1"
parameter = "viability, T/C"
assay_value = 48.6

[[record]]
compound = "COc1ccc([C@@H](O)c2cc(-c3ncnc4cc(N5CCOCC5)ccc34)c(F)cc2Cl)nn1 + Cc1cnc(CNC(=O)c2c(=O)c3ccc(N4CCCN(C)CC4)nc3n3c2sc2ccccc23)cn1"
parameter = "viability, T/C"
assay_value = 32.9


API: the following record is the query input.
For record COc1ncnc(C2CC2)c1-c1ncc2cnn(Cc3ccc(-c4nc(C(F)(F)F)cn4C(C)C)cc3)c2n1 + CN(C)c1ccc(Nc2c3ccc(NC(=O)CCN4CCCC4)cc3nc3cc(NC(=O)CCN4CCCC4)ccc23)cc1 the listed viability, T/C is 95.7

* * *

Tested on: 885724-159-R-J1-PDC complex spheroid viability
Assay: Anticancer human tumor 885724-159-R-J1-PDC cell line growth inhibition [GQUAD];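 note: spheroids exposed to agents for seven days before readout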;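 for viability, T/C: percent of vehicle control viability where 100% = DMSO wells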
Settings: second compound 10 µM; first compound 3.16 µM; stronger effect = lower value
Parameter: viability, T/C

Examples with answers:
[[record]]
compound = "COc1cccc2c1C(=O)c1c(O)c3c(c(O)c1C2=O)CC(O)(C(=O)CO)CC3OC1CC(N)C(O)C(C)O1 (stereo not given) + Cc1[nH]c2ccc(F)cc2c1-c1nc2c3cccnc3c3ncccc3c2[nH]1"
assay_value = "39%"

[[record]]
compound = "COc1cccc2c1C(=O)c1c(O)c3c(c(O)c1C2=O)CC(O)(C(=O)CO)CC3OC1CC(N)C(O)C(C)O1 (stereo not given) + CN(C)c1ccc(Nc2c3ccc(NC(=O)CCN4CCCC4)cc3nc3cc(NC(=O)CCN4CCCC4)ccc23)cc1"
assay_value = "32.7%"

[[record]]
compound = "Cc1cccc(N(C)C(=O)C2C(O)CCN2c2nc(C)cc(C(F)(F)F)c2C#N)c1 (stereo not given) + Cc1cnc(CNC(=O)c2c(=O)c3ccc(N4CCCN(C)CC4)nc3n3c2sc2ccccc23)cn1"
assay_value = "103%"

[[record]]
compound = "C=CC(=O)N1CCN(c2nc(=O)n(-c3c(C)ccnc3C(C)C)c3nc(-c4c(O)cccc4F)c(F)cc23)C(C)C1 (stereo not given) + Cc1cnc(CNC(=O)c2c(=O)c3ccc(N4CCCN(C)CC4)nc3n3c2sc2ccccc23)cn1"
assay_value = "78%"


For record C=CC(=O)N1CCN(c2nc(=O)n(-c3c(C)ccnc3C(C)C)c3nc(-c4c(O)cccc4F)c(F)cc23)C(C)C1 (stereo not given) + Cc1[nH]c2ccc(F)cc2c1-c1nc2c3cccnc3c3ncccc3c2[nH]1 the listed viability, T/C is 73%

* * *

Test system: 885724-159-R-J1-PDC complex spheroid viability
Assay: Anticancer human tumor 885724-159-R-J1-PDC cell line growth inhibition [GQUAD];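 note: spheroids exposed to agents for seven days before readout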
Conditions: curve of first compound; second compound 0.0316 µM
pIC50: −log10 of the molar value.
Parameter: pIC50

Examples with answers:
[[record]]
molecule = "COc1ncnc(C2CC2)c1-c1ncc2cnn(Cc3ccc(-c4nc(C(F)(F)F)cn4C(C)C)cc3)c2n1 + Cc1[nH]c2ccc(F)cc2c1-c1nc2c3cccnc3c3ncccc3c2[nH]1"
parameter = "pIC50"
assay_value = "< 5.00"

[[record]]
molecule = "Nc1ccn(C2OC(CO)C(O)C2(F)F)c(=O)n1 (stereo unspecified) + CN(C)c1ccc(Nc2c3ccc(NC(=O)CCN4CCCC4)cc3nc3cc(NC(=O)CCN4CCCC4)ccc23)cc1"
parameter = "pIC50"
assay_value = "< 5.00"

[[record]]
molecule = "CC[C@@]1(O)C(=O)OCc2c1cc1n(c2=O)Cc2cc3c(CN(C)C)c(O)ccc3nc2-1 + CN(C)c1ccc(Nc2c3ccc(NC(=O)CCN4CCCC4)cc3nc3cc(NC(=O)CCN4CCCC4)ccc23)cc1"
parameter = "pIC50"
assay_value = "< 6.50"

[[record]]
molecule = "O=C(NO)c1cnc(N2CCN(S(=O)(=O)c3ccc4ccccc4c3)CC2)nc1 + CN(C)c1ccc(Nc2c3ccc(NC(=O)CCN4CCCC4)cc3nc3cc(NC(=O)CCN4CCCC4)ccc23)cc1"
parameter = "pIC50"
assay_value = 6.17

[[record]]
molecule = "Cc1[nH]c2ccccc2c1CCNCc1ccc(/C=C/C(=O)NO)cc1 + CN(C)c1ccc(Nc2c3ccc(NC(=O)CCN4CCCC4)cc3nc3cc(NC(=O)CCN4CCCC4)ccc23)cc1"
parameter = "pIC50"
assay_value = "< 6.50"


For record CC[C@@]1(O)C(=O)OCc2c1cc1n(c2=O)Cc2cc3c(CN(C)C)c(O)ccc3nc2-1 + Cc1cnc(CNC(=O)c2c(=O)c3ccc(N4CCCN(C)CC4)nc3n3c2sc2ccccc23)cn1 the listed pIC50 is < 6.50

For record C=CCn1c(=O)c2cnc(Nc3ccc(N4CCN(C)CC4)cc3)nc2n1-c1cccc(C(C)(C)O)n1 + Cc1[nH]c2ccc(F)cc2c1-c1nc2c3cccnc3c3ncccc3c2[nH]1 the listed pIC50 is < 5.00

For record Cc1cccc(N(C)C(=O)C2C(O)CCN2c2nc(C)cc(C(F)(F)F)c2C#N)c1 (stereo unspecified) + Cc1[nH]c2ccc(F)cc2c1-c1nc2c3cccnc3c3ncccc3c2[nH]1 the listed pIC50 is < 5.00

For record Cc1cccc(N(C)C(=O)C2C(O)CCN2c2nc(C)cc(C(F)(F)F)c2C#N)c1 (stereo unspecified) + Cc1cnc(CNC(=O)c2c(=O)c3ccc(N4CCCN(C)CC4)nc3n3c2sc2ccccc23)cn1 the listed pIC50 is < 5.00

For record CC1COCCN1c1cc(-c2ccnn2C)c2ccnc(-c3ccn[nH]3)c2n1 (stereo unspecified) + Cc1[nH]c2ccc(F)cc2c1-c1nc2c3cccnc3c3ncccc3c2[nH]1 the listed pIC50 is < 5.00

For record C=CC(=O)N1CCN(c2nc(=O)n(-c3c(C)ccnc3C(C)C)c3nc(-c4c(O)cccc4F)c(F)cc23)C(C)C1 (stereo unspecified) + Cc1cnc(CNC(=O)c2c(=O)c3ccc(N4CCCN(C)CC4)nc3n3c2sc2ccccc23)cn1 the listed pIC50 is < 5.00
